Biological target: TLR7 (Homo sapiens)
Sequence (Q9NYK1 27-1049): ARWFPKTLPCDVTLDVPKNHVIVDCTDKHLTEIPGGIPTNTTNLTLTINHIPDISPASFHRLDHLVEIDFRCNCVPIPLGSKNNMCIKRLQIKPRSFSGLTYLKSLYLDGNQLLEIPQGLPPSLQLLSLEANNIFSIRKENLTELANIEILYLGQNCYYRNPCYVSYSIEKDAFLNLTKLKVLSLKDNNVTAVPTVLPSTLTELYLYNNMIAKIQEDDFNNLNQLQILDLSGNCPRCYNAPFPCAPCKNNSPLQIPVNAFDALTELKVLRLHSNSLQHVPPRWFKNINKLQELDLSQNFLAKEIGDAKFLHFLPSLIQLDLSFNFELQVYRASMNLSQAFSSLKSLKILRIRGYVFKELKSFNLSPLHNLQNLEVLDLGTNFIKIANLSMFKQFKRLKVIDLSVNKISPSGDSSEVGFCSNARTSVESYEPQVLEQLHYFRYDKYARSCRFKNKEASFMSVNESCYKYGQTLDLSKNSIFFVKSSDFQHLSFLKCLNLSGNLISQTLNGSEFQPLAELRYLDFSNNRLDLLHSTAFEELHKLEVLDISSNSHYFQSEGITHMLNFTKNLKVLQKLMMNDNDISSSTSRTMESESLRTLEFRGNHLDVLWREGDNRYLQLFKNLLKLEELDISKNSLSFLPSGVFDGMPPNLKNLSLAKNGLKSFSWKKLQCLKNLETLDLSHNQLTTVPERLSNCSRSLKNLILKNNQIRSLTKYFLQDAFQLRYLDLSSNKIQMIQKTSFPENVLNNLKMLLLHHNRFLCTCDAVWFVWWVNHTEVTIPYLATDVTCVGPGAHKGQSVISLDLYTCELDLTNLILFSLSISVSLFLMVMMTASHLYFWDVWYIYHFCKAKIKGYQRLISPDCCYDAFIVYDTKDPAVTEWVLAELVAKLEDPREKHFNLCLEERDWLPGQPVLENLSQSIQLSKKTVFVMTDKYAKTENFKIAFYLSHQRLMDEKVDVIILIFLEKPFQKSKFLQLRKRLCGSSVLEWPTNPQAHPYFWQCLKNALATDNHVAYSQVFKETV
Assay: Human TLR7 reporter gene inhibitory activity assay (NF-κB/SEAP HEK293)
Format: cell-based
Design: host or cells: HEK293 (TLR7/NF-κB/SEAPorter)
Settings: compound 1 nM (as headed); R848 200 nM
Each record here notes measured human TLR7 activity, reporter signal.
Please reply with the number alone, leaving off any unit.

Illustrative cases are given below, each with its answer.
{"columns": ["compound", "testReadout", "testResult"],
 "data": [
  ["CCOc1nc(N)c2nc(-c3cncc(F)c3)n(Cc3ccc(CN4C[C@@H]5C[C@H]4CN5C)cc3)c2n1 [Cpd-6]", "human TLR7 activity, reporter signal", 0.006275],
  ["CCOc1nc(C)c2nc(-c3cncc(F)c3)n(Cc3ccc(CN4C[C@@H]5C[C@H]4CN5C)cc3)c2n1 [Cpd-7]", "human TLR7 activity, reporter signal", -0.02107],
  ["CCN(CCO)CCCC(C)Nc1ccnc2cc(Cl)ccc12 (stereo not shown) [HCQ, hydroxychloroquine, reference compound]", "human TLR7 activity, reporter signal", 1.5856]
]}

We now examine a further compound.
Answer with the recorded human TLR7 activity, reporter signal for the compound listed here: CCCCOc1nc(N)c2nc(-c3cccnc3)n(Cc3ccccc3)c2n1 [Cpd-5] 1.7924

----------
target: TLR7 (Homo sapiens); test: Human TLR7 reporter gene inhibitory activity assay (NF-κB/SEAP HEK293); type: cell-based; design: host or cells: HEK293 (TLR7/NF-κB/SEAPorter); settings: compound 0.1 nM (as headed); R848 200 nM
testReadout: human TLR7 activity, reporter signal
Please reply with the number alone, leaving off any unit.

Illustrative cases are given below, each with its answer.
{"columns": ["compound", "tgt", "human TLR7 activity, reporter signal"],
 "data": [
  ["CCOc1nc(N)c2nc(-c3cncc(F)c3)n(Cc3ccc(CN4C[C@@H]5C[C@H]4CN5C)cc3)c2n1", "TLR7 (Homo sapiens)", 0.3393],
  ["CCOc1nc(C)c2nc(-c3cncc(F)c3)n(Cc3ccc(CN4C[C@@H]5C[C@H]4CN5C)cc3)c2n1", "TLR7 (Homo sapiens)", 0.1271],
  ["CCN(CCO)CCCC(C)Nc1ccnc2cc(Cl)ccc12 (stereo not shown) [HCQ, hydroxychloroquine, reference compound]", "TLR7 (Homo sapiens)", 1.7194]
]}

We now examine a further compound.
Answer with the recorded human TLR7 activity, reporter signal for the compound listed here: `CCCCOc1nc(N)c2nc(-c3cccnc3)n(Cc3ccccc3)c2n1` 1.8291

----------
target: TLR7 (Homo sapiens, UniProt Q9NYK1); experiment: Human TLR7 reporter gene agonistic activity assay; assay type: cell-based; set-up: host or cells: HEK293 (TLR7/NF-κB/SEAPorter); conditions: compound 0.01 nM (as headed)
testReadout: activation of human TLR7, reporter signal
Please reply with the number alone, leaving off any unit.

{"columns": ["compound", "testResult"],
 "data": [
  ["CCCCOc1nc(N)c2nc(-c3cccnc3)n(Cc3ccccc3)c2n1", -0.08885],
  ["CCOc1nc(C)c2nc(-c3cncc(F)c3)n(Cc3ccc(CN4C[C@@H]5C[C@H]4CN5C)cc3)c2n1", -0.1002],
  ["CCOc1nc(N)c2nc(-c3cncc(F)c3)n(Cc3ccc(CN4C[C@@H]5C[C@H]4CN5C)cc3)c2n1", -0.1139]
]}

We now examine a further compound.
Answer with the recorded activation of human TLR7, reporter signal for the compound listed here: CCOCc1nc2c(N)nc3ccccc3c2n1CC(C)(C)O [R848, reference compound] -0.0215

----------
Biological target: mouse TLR7 (Mus musculus)
Sequence (P58681 27-1050): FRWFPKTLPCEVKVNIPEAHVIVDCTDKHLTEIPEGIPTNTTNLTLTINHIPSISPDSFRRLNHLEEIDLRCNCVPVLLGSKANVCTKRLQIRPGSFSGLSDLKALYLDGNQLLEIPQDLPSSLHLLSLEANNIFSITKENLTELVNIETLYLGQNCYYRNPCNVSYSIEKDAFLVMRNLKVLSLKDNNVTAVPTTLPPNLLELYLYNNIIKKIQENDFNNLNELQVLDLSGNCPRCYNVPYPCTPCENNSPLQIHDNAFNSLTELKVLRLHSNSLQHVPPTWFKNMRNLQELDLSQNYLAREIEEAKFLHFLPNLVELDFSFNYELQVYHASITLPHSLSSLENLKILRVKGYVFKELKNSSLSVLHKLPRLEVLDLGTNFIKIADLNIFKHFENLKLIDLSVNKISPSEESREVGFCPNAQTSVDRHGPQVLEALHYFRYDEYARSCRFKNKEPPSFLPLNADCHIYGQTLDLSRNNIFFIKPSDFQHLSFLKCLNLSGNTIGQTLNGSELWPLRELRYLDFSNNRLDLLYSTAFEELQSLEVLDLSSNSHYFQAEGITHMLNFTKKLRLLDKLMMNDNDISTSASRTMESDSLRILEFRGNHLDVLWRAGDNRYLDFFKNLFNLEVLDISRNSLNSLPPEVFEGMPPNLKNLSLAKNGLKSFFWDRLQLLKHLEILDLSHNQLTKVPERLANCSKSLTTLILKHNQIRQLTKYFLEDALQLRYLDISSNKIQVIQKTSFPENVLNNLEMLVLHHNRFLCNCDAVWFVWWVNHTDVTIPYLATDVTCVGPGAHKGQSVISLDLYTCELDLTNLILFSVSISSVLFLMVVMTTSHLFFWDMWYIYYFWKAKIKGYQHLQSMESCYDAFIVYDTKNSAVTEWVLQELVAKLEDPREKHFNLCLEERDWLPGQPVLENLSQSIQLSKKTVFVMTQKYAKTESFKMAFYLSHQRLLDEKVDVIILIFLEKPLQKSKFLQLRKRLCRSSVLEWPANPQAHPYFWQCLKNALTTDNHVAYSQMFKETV
Experiment: Mouse TLR7 reporter gene assay (NF-kB luciferase, HEK293)
Settings: R848 200 nM
testReadout: pIC50
pIC50 (log units): -log10 of the concentration in mol/L.

Answer with the recorded pIC50 for the compound listed here: `CCOc1nc(C)c2nc(-c3cncc(F)c3)n(Cc3ccc(CN4C[C@@H]5C[C@H]4CN5C)cc3)c2n1` 6.72

----------
target: TLR7 (Homo sapiens, UniProt Q9NYK1); assay: Human TLR7 reporter gene inhibitory activity assay (NF-κB/SEAP HEK293); assay type: cell-based; set-up: host or cells: HEK293 (TLR7/NF-κB/SEAPorter); conditions: compound 3 nM (as headed); R848 200 nM
Each record here notes measured human TLR7 activity, reporter signal.
Please reply with the number alone, leaving off any unit.

Illustrative cases are given below, each with its answer.
{"columns": ["compound", "testReadout", "testResult"],
 "data": [
  ["CCCCOc1nc(N)c2nc(-c3cccnc3)n(Cc3ccccc3)c2n1", "human TLR7 activity, reporter signal", 1.5762],
  ["CCOc1nc(C)c2nc(-c3cncc(F)c3)n(Cc3ccc(CN4C[C@@H]5C[C@H]4CN5C)cc3)c2n1", "human TLR7 activity, reporter signal", -0.03277],
  ["CCOc1nc(N)c2nc(-c3cncc(F)c3)n(Cc3ccc(CN4C[C@@H]5C[C@H]4CN5C)cc3)c2n1", "human TLR7 activity, reporter signal", -0.01137]
]}

We now examine a further compound.
Answer with the recorded human TLR7 activity, reporter signal for the compound listed here: CCN(CCO)CCCC(C)Nc1ccnc2cc(Cl)ccc12 (stereo not shown) [HCQ, hydroxychloroquine, reference compound] 1.338
